Every entry's value here was drawn from ChEMBL document CHEMBL2169767.

- System Tested: Growth hormone secretagogue receptor type 1 (Homo sapiens)
- Sequence (Q92847 whole entry): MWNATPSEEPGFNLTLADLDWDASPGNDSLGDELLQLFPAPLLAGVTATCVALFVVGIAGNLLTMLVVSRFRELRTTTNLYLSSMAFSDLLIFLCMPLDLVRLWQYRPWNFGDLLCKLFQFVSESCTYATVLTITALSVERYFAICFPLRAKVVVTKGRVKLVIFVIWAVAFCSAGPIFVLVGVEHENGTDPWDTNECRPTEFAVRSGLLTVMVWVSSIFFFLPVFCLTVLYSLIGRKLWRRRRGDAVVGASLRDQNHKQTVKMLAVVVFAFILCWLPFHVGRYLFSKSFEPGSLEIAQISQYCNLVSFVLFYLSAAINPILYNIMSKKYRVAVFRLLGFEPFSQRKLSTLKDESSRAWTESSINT
- Experiment: Agonist activity at FLAG-tagged human ghrelin receptor expressed in COS 7 cells using [2-3H]myo-inositol by inositol triphosphate turnover assay
- Format: functional, cell-based
Assay Readout: pEC50
API: returns pEC50 as number; meaning -log10 of concentration in mol/L.

[in] Given `CC(C)C[C@H](NC(=O)[C@H](CC(C)C)NC(=O)[C@@H](Cc1ccc2ccccc2c1)NC(=O)[C@H](Cc1ccccc1)NC(=O)[C@@H](Cc1c[nH]c2ccccc12)NC(=O)[C@@H](N)CCCCN)C(N)=O` , state its recorded pEC50.
[out] 8.14

====

Give measured pKi for each item. Keep answers brief.
- System Tested: Growth hormone secretagogue receptor type 1 (Homo sapiens)
- Experiment: Displacement of [125I]-His-ghrelin from human ghrelin receptor expressed in COS7 cells incubated for 75 mins by scintillation counting based assay
On this scale, pKi is minus log10 of a concentration expressed in M (mol/L).

[in] Which pKi value is on record for `CC(C)C[C@H](NC(=O)[C@H](CC(C)C)NC(=O)[C@@H](Cc1ccc2ccccc2c1)NC(=O)[C@H](Cc1ccccc1)NC(=O)[C@@H](Cc1c[nH]c2ccccc12)NC(=O)[C@@H](N)CCCCN)C(N)=O` ?
[out] 6.63

[in] For the molecule shown here, `CC(C)C[C@H](NC(=O)[C@H](CC(C)C)NC(=O)[C@@H](Cc1cccc2ccccc12)NC(=O)[C@H](Cc1ccccc1)NC(=O)[C@@H](Cc1c[nH]c2ccccc12)NC(=O)[C@@H](N)CCCCN)C(N)=O` , give the reported pKi.
[out] 6.61
